assay_target: UniProt:P25100
Sequence (P25100 whole entry): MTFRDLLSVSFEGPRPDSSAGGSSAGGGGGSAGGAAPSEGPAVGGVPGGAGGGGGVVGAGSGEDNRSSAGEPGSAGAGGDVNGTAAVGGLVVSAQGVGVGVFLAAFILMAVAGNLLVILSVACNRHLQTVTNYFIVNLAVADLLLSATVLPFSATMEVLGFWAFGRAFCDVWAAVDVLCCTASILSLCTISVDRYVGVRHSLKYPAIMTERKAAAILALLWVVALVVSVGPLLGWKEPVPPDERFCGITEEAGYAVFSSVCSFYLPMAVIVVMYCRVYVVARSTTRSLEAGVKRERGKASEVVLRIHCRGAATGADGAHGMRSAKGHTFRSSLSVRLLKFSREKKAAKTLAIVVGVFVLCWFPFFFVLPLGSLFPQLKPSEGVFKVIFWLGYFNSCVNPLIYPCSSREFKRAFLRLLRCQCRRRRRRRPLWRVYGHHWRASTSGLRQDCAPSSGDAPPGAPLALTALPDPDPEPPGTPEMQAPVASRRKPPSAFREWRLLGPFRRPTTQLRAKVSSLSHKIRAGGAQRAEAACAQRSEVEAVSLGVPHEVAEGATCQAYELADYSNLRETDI
experiment_description: Agonist activity at human adrenergic Alpha-1D receptor expressed in CHO cells assessed as calcium mobilization by FLIPR
readout: EC50 (nM)

Fc1ccc(-c2ncco2)c(C2Cc3nccn3C2)c1 (stereo unspecified) :: 276

a: c1cncc(-c2ccccc2[C@@H]2Cc3nccn3C2)c1
b: c1ccc([C@@H]2Cc3nccn3C2)c(-c2cncnc2)c1
// which entry has the larger EC50 value, a or b ? Lab log: write the label of the selected item as the result. b
(b: 391 nM, a: 119 nM)
